# testedOn: human MCHR1 (Homo sapiens, UniProt Q99705)
# Construct: expressed in transfected cells; host or cells: CHO dhfr- cells, clone #4
# Sequence (Q99705 whole entry): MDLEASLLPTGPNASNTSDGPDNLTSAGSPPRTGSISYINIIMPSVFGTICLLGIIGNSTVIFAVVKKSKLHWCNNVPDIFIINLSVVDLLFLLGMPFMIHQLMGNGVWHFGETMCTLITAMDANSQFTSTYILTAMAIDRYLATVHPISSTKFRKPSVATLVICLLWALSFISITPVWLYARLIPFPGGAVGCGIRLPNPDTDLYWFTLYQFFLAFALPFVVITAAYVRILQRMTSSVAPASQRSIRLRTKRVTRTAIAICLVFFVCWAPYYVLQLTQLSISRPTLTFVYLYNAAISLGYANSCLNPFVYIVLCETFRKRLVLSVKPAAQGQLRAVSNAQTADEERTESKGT
# measurementDescription: MCH receptor 1 antagonistic activity using Ca2+ mobilization assay
# Type: cell-based
# conditionSummary: test compound 0.1 μM; ligand MCH (4-19) 2 nM; human MCHR1-expressing CHO cells (clone #4); read-out: Inhibition rate % (0.1 μM)
recordedEndpoint: inhibition at 0.1 µM (%)
Numeric only. Scale: %

Check out these entries, answers already filled in.
compound	inhibition at 0.1 µM, %
Cc1c2cc(-n3ccc(OCc4csc(C(F)(F)F)c4)cc3=O)ccc2nn1C1CC1 [Example 44]	55
Cc1c2cc(-n3ccc(OCc4csc(C(F)(F)F)c4)cc3=O)ccc2nn1C [Example 22]	69
Cc1c2cc(-n3ccc(OCc4ccc(Cl)s4)cc3=O)ccc2nn1C1CC1 [Example 8]	55
Cc1c2cc(-n3ccc(OCc4ccc(F)cc4)cc3=O)ccc2nn1C [Example 42]	65
Cc1c2cc(-n3ccc(OCc4nc(Br)cs4)cc3=O)ccc2nn1C [Example 30]	89
Cc1c2cc(-n3ccc(OCc4ccc(Br)s4)cc3=O)ccc2nn1C [Example 27]	92
Cc1c2cc(-n3ccc(OCc4ccc(C(F)(F)F)s4)cc3=O)ccc2nn1C1CC1 [Example 45]	43
Cc1c2cc(-n3ccc(OCc4cc(C(F)(F)F)cs4)cc3=O)ccc2nn1C1CC1 [Example 43]	72
Cc1c2cc(-n3ccc(OCc4ccc(Br)cc4)cc3=O)ccc2nn1C [Example 25]	84
Cc1c2cc(-n3ccc(OCc4ccc(Cl)cc4)cc3=O)ccc2nn1C1CC1 [Example 5]	86

Item under review: Cc1c2cc(-n3ccc(OCc4ccc(Br)cn4)cc3=O)ccc2nn1C1CC1 [Example 28] . Reported inhibition at 0.1 µM?
93
